Quick reference: viability, T/C of the listed items.
system: 616215-338-R-J1-PDC tumor spheroids, viability; experiment: Anticancer human tumor 616215-338-R-J1-PDC patient-derived colon adenocarcinoma cell line growth inhibition [GQUAD]; details: second compound 10 µM; first compound 0.316 µM; stronger effect = lower value; spheroids with HUVEC and MSC
Value expressed in %; do not type the unit.

Look over these answered cases.
| MOLECULE | DISPLAY_UNIT | MEASURED_NUMBER |
| --- | --- | --- |
| CC1COCCN1c1cc(C2(O)CC3CCC(C2)O3)c2cnn(-c3ccn[nH]3)c2n1 (stereo not drawn) + CN(C)c1ccc(Nc2c3ccc(NC(=O)CCN4CCCC4)cc3nc3cc(NC(=O)CCN4CCCC4)ccc23)cc1 | % | 35.2 |
| C=CCn1c(=O)c2cnc(Nc3ccc(N4CCN(C)CC4)cc3)nc2n1-c1cccc(C(C)(C)O)n1 + Cc1[nH]c2ccc(F)cc2c1-c1nc2c3cccnc3c3ncccc3c2[nH]1 | % | 34 |

IN: Quick check: viability, T/C on 616215-338-R-J1-PDC tumor spheroids, viability, item CC(C)n1c(=O)n(C)c2cnc3cc(F)c(-c4ccc(OCCCN5CCCCC5)nc4)cc3c21 + Cc1[nH]c2ccc(F)cc2c1-c1nc2c3cccnc3c3ncccc3c2[nH]1 ?
OUT: 99.1

---

tested on: 616215-338-R-J1-PDC tumor spheroids, viability; assay: Anticancer human tumor 616215-338-R-J1-PDC cell line growth inhibition [GQUAD]; settings: second compound 3.16 µM; first compound 0.00999 µM; stronger effect = lower value; spheroids with HUVEC and MSC;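 also: spheroids exposed to agents for 7 days before readout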;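 as to viability, T/C: percent viability relative to DMSO vehicle control wells taken as 100%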
PARAMETER_MEASURED: viability, T/C

IN: Recorded viability, T/C for Cc1[nH]c2ccccc2c1CCNCc1ccc(/C=C/C(=O)NO)cc1 + Cc1[nH]c2ccc(F)cc2c1-c1nc2c3cccnc3c3ncccc3c2[nH]1 , please?
OUT: 100%

IN: Need viability, T/C, item CC[C@@]1(O)C(=O)OCc2c1cc1n(c2=O)Cc2cc3c(CN(C)C)c(O)ccc3nc2-1 + Cc1cnc(CNC(=O)c2c(=O)c3ccc(N4CCCN(C)CC4)nc3n3c2sc2ccccc23)cn1
OUT: 31.6%

IN: Would you mind telling me what viability, T/C value was observed for Cc1[nH]c2ccccc2c1CCNCc1ccc(/C=C/C(=O)NO)cc1 + Cc1cnc(CNC(=O)c2c(=O)c3ccc(N4CCCN(C)CC4)nc3n3c2sc2ccccc23)cn1 ?
OUT: 24.9%

---

tested on: 616215-338-R-J1-PDC tumor spheroids, viability; test: Anticancer human tumor 616215-338-R-J1-PDC cell line growth inhibition [GQUAD]; details: curve of first compound; second compound 0.316 µM; spheroids with HUVEC and MSC;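 also: spheroids exposed to agents for 7 days before readout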
Recorded measurements of IC50, one per entry

IN: Request: IC50, test system 616215-338-R-J1-PDC tumor spheroids, viability, entry CC(=O)O[C@H]1C(=O)[C@@]2(C)[C@H]([C@H](OC(=O)c3ccccc3)[C@]3(O)C[C@H](OC(=O)[C@H](O)[C@@H](NC(=O)c4ccccc4)c4ccccc4)C(C)=C1C3(C)C)[C@]1(OC(C)=O)CO[C@@H]1C[C@@H]2O + Cc1[nH]c2ccc(F)cc2c1-c1nc2c3cccnc3c3ncccc3c2[nH]1
OUT: < 31.6 nM

IN: What value of IC50 on 616215-338-R-J1-PDC tumor spheroids, viability does COc1ccc([C@@H](O)c2cc(-c3ncnc4cc(N5CCOCC5)ccc34)c(F)cc2Cl)nn1 + Cc1cnc(CNC(=O)c2c(=O)c3ccc(N4CCCN(C)CC4)nc3n3c2sc2ccccc23)cn1 have?
OUT: < 31.6 nM
